# experimentNotes: Toxicity liver stage against HepG2, at 10uM
# Type: cell-based
# Set-up: test concentration 10 uM, cell line HepG2-A16-CD81EGFP
# studyConditions: human, HepG2-A16-CD81EGFP cells; read-out: INHIBITION
For each record, write down the corresponding cytotoxicity at 10 µM.
Write the value in % as a bare number.

Entry CC(C)(C)n1cc(C2=CCN(CCNC(=O)c3ccccc3)CC2)cn1 : reported cytotoxicity at 10 µM = ?
-0.262

Entry c1ccc(OCc2noc(CN3CCC(N4CCSCC4)CC3)n2)cc1 : reported cytotoxicity at 10 µM = ?
-6.95

Entry COCCC1(CO)CCCN(Cc2ccncc2)C1 (stereo not drawn) : reported cytotoxicity at 10 µM = ?
-141

Entry Cn1ncc2c(NC3CCC3)nc(-c3ccncc3)nc21 : reported cytotoxicity at 10 µM = ?
16.7

Entry O=C(Nc1ccccc1)C1CN(Cc2ccsc2)CC12CCOCC2 (stereo not drawn) : reported cytotoxicity at 10 µM = ?
6.58

Entry CC(C)c1nccc(CN2CCC(O)(CN3CCCCC3)C2)n1 (stereo not drawn) : reported cytotoxicity at 10 µM = ?
-1.95

Entry Cc1ccc(-n2cnnn2)cc1NCC(=O)Nc1ccccc1Cl : reported cytotoxicity at 10 µM = ?
7.95

Entry Cc1nc(N2CCN(C)CC2)ncc1C(=O)N1CCN(C)CC1 : reported cytotoxicity at 10 µM = ?
3.85

Entry CC(Oc1cccc(Cl)c1)C(=O)Nc1cnn(CCN(C)C)c1 (stereo not drawn) : reported cytotoxicity at 10 µM = ?
-12.5

Entry Cc1ccc(N2CCCC(NCc3nnc4n3CCCC4)C2=O)cc1 (stereo not drawn) : reported cytotoxicity at 10 µM = ?
-6.69

Entry CN(C(=O)CCN1CCCC1=O)c1cc(C#N)c2ccccc2n1 : reported cytotoxicity at 10 µM = ?
3.33

Entry CC(=O)N1CCN(C(=O)Nc2ccc(Cl)cc2)[C@H]2CS(=O)(=O)C[C@H]21 : reported cytotoxicity at 10 µM = ?
6.55

Entry Cc1cc(C(=O)N(C)CCN(C)C(=O)OC(C)(C)C)oc1C : reported cytotoxicity at 10 µM = ?
3.51

Entry Cn1c(C(=O)N2CCC(CC(N)=O)CC2)c(Cl)c2ccccc21 : reported cytotoxicity at 10 µM = ?
18.7

Entry O=C1C(NCc2nnc3n2CCCC3)CCN1c1ccccc1 (stereo not drawn) : reported cytotoxicity at 10 µM = ?
-11.2

Entry COCCCN1CC2(CCN(C(=O)Cc3csc(C)n3)CC2)CC1=O : reported cytotoxicity at 10 µM = ?
5.06

Entry CCNC(c1ccc(CC)cc1)c1cccnc1 (stereo not drawn) : reported cytotoxicity at 10 µM = ?
-5.4

Entry CC(Cn1cccn1)NC(=O)NCCN1CCCCCC1=O (stereo not drawn) : reported cytotoxicity at 10 µM = ?
12.3
